test system: PC-3; test: NCI tumour cell line growth inhibition, 48 h
Calls of active or inactive are those of the source. Cut-off read from the data, not from the text of the source: active = GI50 up to about 1.1 µM and inactive = higher.
reported_endpoint: GI50

# compound, GI50
rows = [
    ("Cc1c(-c2ccccc2)[nH]c2cn[nH]c(=O)c12", "67.9 µM (inactive)"),
    ("O=C(CNc1ccccc1Cl)Nn1c(-c2ccccc2)nc2ccccc2c1=O", "20.7 µM (inactive)"),
    ("CC1(C)C2CCC1(CS(=O)(=O)Nc1ccccc1)C(=O)C2 (stereo unspecified)", "> 100 µM (inactive)"),
    ("Cc1ccc(S(=O)(=O)N(CC(O)COc2ccccc2)c2ccccc2Cl)cc1 (stereo unspecified)", "15.9 µM (inactive)"),
    ("COC(=O)C(Cc1ccccc1)NP(=O)(O)OCC1OC(n2cc(F)c(=O)[nH]c2=O)CC1O (stereo unspecified)", "> 78.5 µM (inactive)"),
]

Query: Query (compound): `C=CCSc1nn(CC=C)cc2ncnc1-2` ; field requested: GI50
Response: > 100 µM (inactive)

---

# reported GI50; entries follow
tested on: HOP-92; test: NCI tumour cell line growth inhibition, 48 h
The source made the active and inactive calls. Cut-off read from the data, not from the text of the source: active = GI50 up to about 1.1 µM and inactive = higher.

Some entries whose results are on file:
# compound, experimental_target, GI50
records = [
    ("Cc1ccc(C)n1-c1ccccc1C1SCCCS1", "HOP-92", "> 100 µM (inactive)"),
    ("CCCCOC(=O)C(=O)C(CC(CC)C(=O)c1ccccc1)C(=O)C=C(C)C (stereo unspecified)", "HOP-92", "> 100 µM (inactive)"),
    ("Cc1ccc2c(c1CCCC(C)(C)O)C(=O)C(O)=C(C(C)C)C2=O", "HOP-92", "> 100 µM (inactive)"),
    ("Cc1ccc(-n2c(=O)c3nn4c(=O)n(-c5ccc(C)cc5)c(=O)c4nn3c2=O)cc1", "HOP-92", "45.6 µM (inactive)"),
    ("O=c1[nH]n(Cc2ccccc2)c2ccc([N+](=O)[O-])cc12", "HOP-92", "55.8 µM (inactive)"),
]

Consider now this further compound.
Query: Query (compound): `O=C(/C=C/c1ccc2c(c1)OCO2)Cc1nc2ncccc2[nH]c1=O` ; field requested: GI50
Response: > 100 µM (inactive)

---

system: NCI-H226; assay: NCI tumour cell line growth inhibition, 48 h
Calls of active or inactive are those of the source. Cut-off read from the data, not from the text of the source: active = GI50 up to about 1.1 µM and inactive = higher.
# reported GI50; entries follow

Some entries whose results are on file:
# molecule, GI50
data = [
    ("O=C1c2ccccc2-c2c1c1ccccc1c(=O)n2-c1ccccc1", "12.2 µM (inactive)"),
    ("S=C(Nc1cc(Cl)c(Cl)cc1Cl)SCc1ccccc1", "18.5 µM (inactive)"),
    ("Cc1ccc(S(=O)(=O)n2cc(-c3cc(C(F)(F)F)ccn3)c3cc(Br)ccc32)cc1", "19 µM (inactive)"),
    ("CCC1(O)CC(CCN(Cc2ccccc2)C(=O)OCc2ccccc2)C(OCc2ccccc2)C1O (stereo not given)", "10.7 µM (inactive)"),
]

Consider now this further molecule.
Query: Query (molecule): CC(C)=CC(=O)OC1C2C(C)C(=O)OC2C(O)C(C)C2C=CC(=O)C21C (stereo not given) ; field requested: GI50
Response: 5.22 µM (inactive)

---

test system: COLO 205; experiment: NCI tumour cell line growth inhibition, 48 h
Active and inactive are the calls of the source. Rule as the data show it: active = GI50 up to about 1.1 µM and inactive = higher.
# reported GI50; entries follow

Some entries whose results are on file:
# compound, result
records = [
    ("CCC1(O)CC(CCN(Cc2ccccc2)C(=O)OCc2ccccc2)C(OCc2ccccc2)C1O (stereo unspecified)", "16.2 µM (inactive)"),
    ("CC(=O)OCC(C)(COC(C)=O)N1C(=O)C2C3c4ccccc4C(c4ccccc43)C2C1=O (stereo unspecified)", "> 100 µM (inactive)"),
    ("CC(C)(C)n1c(=O)n(C(=O)C(Cl)(Cl)Cl)n(C(=O)C(Cl)(Cl)Cl)c1=O", "> 100 µM (inactive)"),
    ("CCP(=O)(OC)C1=CCN(C(=O)OCC[Si](C)(C)C)CC1 (stereo unspecified)", "> 100 µM (inactive)"),
    ("CC1(C)CC(C2=NCCO2)CC(C)(C)N1", "> 100 µM (inactive)"),
]

Consider now this further compound.
Query: Query (compound): `CCNc1nc2ccccc2nc1NCC` ; field requested: GI50
Response: > 100 µM (inactive)
